tested on: HeLa cells; test: Drug combination assay (MTT, Chou-Talalay, CampuSyn); assay type: cell-based; conditions: Homo sapiens, 24 h, drug alone, read-out: (Dm)IC50 Drug 2 (MBIC alone)

COMPOUND	IC50 / nM
COC(=O)c1ccc2[nH]c(-c3cc(F)ccc3O)nc2c1 [MBIC]	210
